These measurements were taken from ChEMBL document CHEMBL1138784.

Tested on: Nucleic Acid
experimentSummary: Binding site preference is determined as the ratio of Poly (dA-dT)2 to Poly (dG-dC)2
Type: nucleic-acid assay
readoutType: Binding site preference

Solved entries:
>>> print(df.to_string())
                               samplesmiles  systemundertest  testvalue
0  COc1ccc2c(c1)-c1nn(CCN(C)C)c3ccc(C(=O)NCCN(C)CCNC(=O)c4ccc5c6c(c7cc(OC)ccc7nc46)NN5CCN(C)C)c(c13)N2     Nucleic Acid        2.8
1  CN(C)CCNC(=O)c1ccc2c3c(c4cc(O)ccc4nc13)NN2CCN(C)C     Nucleic Acid        5.1
2  CN(C)CCn1c(=O)c2ccc(NCCCCCCCCCCCCNc3ccc4c(=O)n(CCN(C)C)c(=O)n5c6ccccc6c(=O)c3c45)c3c(=O)c4ccccc4n(c1=O)c23     Nucleic Acid         12
3  CN(C)CCNC(=O)c1ccc2c3c(c4ccccc4nc13)NN2CCN(C)C     Nucleic Acid        3.4

I = CN(C)CCn1c(=O)c2ccc(NCCN(C)CCNc3ccc4c(=O)n(CCN(C)C)c(=O)n5c6ccccc6c(=O)c3c45)c3c(=O)c4ccccc4n(c1=O)c23
II = CN(C)CCn1c(=O)c2ccc(NCCCN(C)CCCNc3ccc4c(=O)n(CCN(C)C)c(=O)n5c6ccc(O)cc6c(=O)c3c45)c3c(=O)c4cc(O)ccc4n(c1=O)c23
Query string: Hi there! Just curious which has the higher Binding site preference between I and II . Return value: the label identifying the chosen record.
Result string: I
